apparent KD of MS2 coat protein values for the sequences below.
# Tested on: MS2 coat protein
# protocol_notes: apparent KD of MS2 coat protein; designed switch direction (-1 OFF switch, 1 ON switch): -1; higher = weaker reporter binding
# condition_info: input ligand: none
Note: state the figure and append the unit.

Example cases with answers are listed next.
sequence_chain	test_result
AGACGUUAACAGGAUAUGGCCCUGCCGCAAGCGUUAGAAGGGUUGACAUGAGGAUCACCCAUGUGUGAUAGAAG [Eternabot (L1) Solution 95] (Eterna round: R97, puzzle: Exclusion 6)	316 nM
UUUUGCUCAGGAUAUACAUGAGGAUCACCCAUGUAUAUUGAAAAUAAUACAUGGGAAUGUAGAAGGGAGCUCAU [Omei Ex3 Pseudoloop 20] (Eterna round: R97, puzzle: Exclusion 3)	168 nM
GCCAGAGGAGGAUAUCUAAUAUAUCACAUGAGGAUCACCCAUGUCCAGCGAAAGCUGGAGGGAGAAGGCCUCUGGC [Fiskers Ex 5 - 23] (Eterna round: R96, puzzle: Exclusion 5)	252 nM
UUGAAUUAUAAGGAUAUGGGAGUCGAUAGACACCCAGAAGGUAUAACAUGAGGAUCACCCAUGUGUCCUAUCAA [Mod of Eli 25 - Jieux - Exclusion 6] (Eterna round: R97, puzzle: Exclusion 6)	18.2 nM
AUGCCCUGAGGAUAUCUCAUCCCGCACAUGAGGAUCACCCAUGUUCUUCUCUGGGUUUCGAGAGAAGGCAGGCCUA [Armus3] (Eterna round: R97, puzzle: Exclusion 5)	118 nM

Prompt: Give its apparent KD of MS2 coat protein value. Item: ACCGAACAUGAGGAUCACCCAUGUAAGGAUAUCCGUGGACAGCGCCAAAGUUACCGGCGGAGAAGGUGCAUGGU (Eterna round: R97, puzzle: Exclusion 1)
Completion: 19.2 nM

====

# System: MS2 coat protein
# protocol_notes: apparent KD of MS2 coat protein; higher = weaker reporter binding
# condition_info: Eterna round: R107; input ligand: theophylline 2 mM
Criterion: apparent KD of MS2 coat protein meeting or surpassing 30 nM. Met: True. Not met: False.

sequence_chain	class
UUAUUUAACGGAAGGAGCGCGGAAAUAAAAGUGGGUAAACAUGAGGAUCACCCAUGUAAACCGCAGGUAGGUCGCCGAUAUUUAU [AstrosEXyARgB#2]	True
AAGUGGCACGGAAGGAGCGAGUUUACCUAGAUAACAUGAGGAUCACCCAUGUAUAAUGGGACUCAGGUAGGUCGCCGCUGUCACU [#30 Same State - Arginine B]	True
AAUUCCUAACAUGAGGAUCACCCAUGUGAAGGAGCGCCGAAUAAGGCAGGUAGGUCGCACAUGGAACCGCUACGAAAGUAGCAAA	False
UUUUUCAUAGGUUAUAGUUUAGAAACUGAAGGAGCGUGGUAAUACACAGGUAGGUCGCAGAUUUUACAUGAGGAUCACCCAUGUU [JR_ExcArginiA_Sub014]	False
UUCGUUGGCGAUCUGGGUUUACCAGAUCGGCGAGGACCGGUACGGCCGCCACUCGUGUUUUCUUUACAUGAGGAUCACCCAUGUU [SSTA #3]	False
GACCGAUUAUAGCGCGAUUGUCUUGUGGAAGGAGCGCAGAGGGCUGCAGGUAGGUCGCCACAUGAGGAUCACCCAUGUCAGGAUA [Ananvediri]	True

Prompt: Please tell me: is the sequence GGUCGCCAACAUGGGUCGGUGAAAUGGGAAGGAGCGAGCGAGAGCUCAGGUAGGUCGCCCAAACAUGAGGAUCACCCAUGUAAUA [SSArg-A #28 UUU adds V2] at or over 30 nM in terms of apparent KD of MS2 coat protein?
Completion: True

Prompt: Please tell me: is the sequence CCCAGUCAUAGCAGGGCAAAUAUACUCGAAGGAGCGUCAUAGUAGGCAGGUAGGUCGCGAGACAUGAGGAUCACCCAUGUAGAGA [cccmullin] at or over 30 nM in terms of apparent KD of MS2 coat protein?
Completion: True

Prompt: Please tell me: is the sequence UUAUAUAUGCGAAGGAGCGGGAAAUAUAUAUAUAUAAUCCUAACAUGAGGAUCACCCAUGUCCCAGGUAGGUCGCGCAUAUAUAG [12.C] at or over 30 nM in terms of apparent KD of MS2 coat protein?
Completion: True

Prompt: Please tell me: is the sequence UUAAUCAGGUUAGAAAACUAAUUUGCAGAAGGAGCGUGAUAAAACACAGGUAGGUCGCUGAAGGGAACAUGAGGAUCACCCAUGU [AstrosSSArgA#10] at or over 30 nM in terms of apparent KD of MS2 coat protein?
Completion: False

Prompt: Please tell me: is the sequence CUAUAAUGAAAACAUUAUAGAGUGGGUGAACGAGGACCGGUACGGCCGCCACUCGGACAUGAGGAUCACCCAUGUCCAUGUGAAA [AstrosExyTryA#24] at or over 30 nM in terms of apparent KD of MS2 coat protein?
Completion: False

Prompt: Please tell me: is the sequence ACAUGAGGAUCACCCAUGUCAUGAGGUUCACGAGGACCGGUACGGCCGCCACUCGACAUGAGGGUCACCCAUGUGAGGAACACCC [mamullun] at or over 30 nM in terms of apparent KD of MS2 coat protein?
Completion: True
